compounds and their reported FP signal
- Subject Of Test: FITC-labeled CFTRpS753pS768 peptide (no 14-3-3) (Homo sapiens)
- Construct: made in house; host or cells: synthetic peptide
- Assay Notes: Dose-response FP control assay in the absence of 14-3-3
- Type: binding
- Test Conditions: No 14-3-3; compound 2.44141e-7 M

{"Compound": "CC1NC(=O)C(CCCNC(=N)N)NC(=O)C2CCCN2Cc2cccc(c2)-c2ccccc2CNC(=O)C(CCCNC(=N)N)NC1=O (stereo not drawn) [CY007476]", "FP signal": 4}
{"Compound": "NCCCCC1NCc2ccccc2Sc2ccccc2CNC(=O)C(Cc2cccc(Cl)c2)NC(=O)C(Cc2ccc(O)cc2)NC1=O (stereo not drawn) [CY007288]", "FP signal": 5}
{"Compound": "N=C(N)NCCCC1NC(=O)C(CCC(N)=O)NC(=O)C(CCCNC(=N)N)NC(=O)C2CCCN2Cc2cccc(c2)-c2ccccc2CNC1=O (stereo not drawn) [CY007455]", "FP signal": 6}

====

- Subject Of Test: 14-3-3β/CFTRpS753pS768 complex (Homo sapiens, UniProt P13569+P31946)
- Construct: His6 (cleaved yes); made in house; peptide synthetic
- Sequence (P31946 whole entry): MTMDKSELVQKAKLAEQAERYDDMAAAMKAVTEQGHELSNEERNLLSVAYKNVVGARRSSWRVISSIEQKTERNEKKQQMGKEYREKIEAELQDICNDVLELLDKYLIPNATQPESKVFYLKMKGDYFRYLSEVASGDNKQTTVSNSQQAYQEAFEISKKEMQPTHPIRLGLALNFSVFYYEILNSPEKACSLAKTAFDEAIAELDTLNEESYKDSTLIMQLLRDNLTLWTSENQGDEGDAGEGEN
- Sequence (P13569 747-774 limits assumed): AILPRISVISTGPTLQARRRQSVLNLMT
- Assay Notes: Dose-response fluorescence polarization (FP) assay, compound titration
- Assay type: binding
- Test Conditions: With 14-3-3; compound 6.10352e-8 M
FP signal for assorted compounds

{"Compound": "N=C(N)NCCCC1NC(=O)C(CCCCN)NCc2ccccc2Sc2ccccc2CNC(=O)C(Cc2ccc(O)cc2)NC1=O (stereo not shown)", "Subject Of Test": "14-3-3β/CFTRpS753pS768 complex (Homo sapiens, UniProt P13569+P31946)", "FP signal": 5}
{"Compound": "CC1NC(=O)C(CCCNC(=N)N)NC(=O)C2CCCN2Cc2cccc(c2)-c2ccccc2CNC(=O)C(CCCNC(=N)N)NC1=O (stereo not shown)", "Subject Of Test": "14-3-3β/CFTRpS753pS768 complex (Homo sapiens, UniProt P13569+P31946)", "FP signal": 6}
{"Compound": "NCCCC1NCc2ccccc2Sc2ccccc2CNC(=O)C(Cc2c[nH]c3ccccc23)NC(=O)C(Cc2ccccc2)NC1=O (stereo not shown)", "Subject Of Test": "14-3-3β/CFTRpS753pS768 complex (Homo sapiens, UniProt P13569+P31946)", "FP signal": 7}
{"Compound": "NCCCCC1NCc2ccccc2Sc2ccccc2CNC(=O)C(Cc2cccc(Cl)c2)NC(=O)C(Cc2ccc(O)cc2)NC1=O (stereo not shown)", "Subject Of Test": "14-3-3β/CFTRpS753pS768 complex (Homo sapiens, UniProt P13569+P31946)", "FP signal": 4}

====

- Subject Of Test: FITC-labeled CFTRpS753pS768 peptide (no 14-3-3) (Homo sapiens)
- Construct: made in house; host or cells: synthetic peptide
- Assay Notes: Dose-response FP control assay in the absence of 14-3-3
- Assay type: binding
- Test Conditions: No 14-3-3; compound 476.8 pM
- Method: The 14-3-3β concentration used for the FP screening assay was 10 μM (dashed line). c HTS FP assay of the Cyclenium library. The samples contain 100 nM of FITC-CFTR_pS753pS768 peptide, 10 μM 14-3-3β, and 50 μM compound. FC-A (100 µM) was added as a positive control and DMSO as the negative control. Hit compounds are defined as a polarization increase which is higher than 20% of the response of FC-A. Red squares are compounds that appeared positive in the negative control without 14-3-3. […]

{"Molecule": "N=C(N)NCCCC1NC(=O)C(CCCCN)NCc2ccccc2Sc2ccccc2CNC(=O)C(Cc2ccc(O)cc2)NC1=O (stereo not drawn)", "FP signal": 3}
{"Molecule": "NCCCCC1NCc2ccccc2Sc2ccccc2CNC(=O)C(Cc2cccc(Cl)c2)NC(=O)C(Cc2ccc(O)cc2)NC1=O (stereo not drawn)", "FP signal": 6}
{"Molecule": "N=C(N)NCCCC1NC(=O)C(CCC(N)=O)NC(=O)C(CCCNC(=N)N)NC(=O)C2CCCN2Cc2cccc(c2)-c2ccccc2CNC1=O (stereo not drawn) [CY007455]", "FP signal": 5}
{"Molecule": "CN1CC(=O)NC(CCCNC(=N)N)C(=O)NC(CCC(N)=O)C(=O)NC(CCCNC(=N)N)C(=O)NCc2ccccc2-c2cccc(c2)C1 (stereo not drawn)", "FP signal": 4}
{"Molecule": "NCCCC1NCc2ccccc2Sc2ccccc2CNC(=O)C(Cc2c[nH]c3ccccc23)NC(=O)C(Cc2ccccc2)NC1=O (stereo not drawn)", "FP signal": 5}
{"Molecule": "N=C(N)NCCCC1NC(=O)C(CCC(N)=O)NC(=O)C(CCCNC(=N)N)NC(=O)C2CCCN2Cc2cccc(c2)-c2ccccc2CNC1=O (stereo not drawn) [CY007458]", "FP signal": 6}
{"Molecule": "N=C(N)NCCCC1NCc2ccccc2Sc2ccccc2CNC(=O)C(Cc2ccc(O)cc2)NC(=O)C(CCCN)NC1=O (stereo not drawn)", "FP signal": 4}
{"Molecule": "CC1NC(=O)C(CCCNC(=N)N)NC(=O)C2CCCN2Cc2cccc(c2)-c2ccccc2CNC(=O)C(CCCNC(=N)N)NC1=O (stereo not drawn)", "FP signal": 1}
{"Molecule": "C=CC(C)(C)OC[C@H]1O[C@H](O[C@@H]2C3=C([C@H](C)COC(C)=O)C[C@H](O)[C@]3(C)/C=C3/[C@@H](COC)CC[C@H]3[C@@H](C)[C@H]2O)[C@H](O)[C@@H](OC(C)=O)[C@@H]1O [FC-A, fusicoccin A, reference compound]", "FP signal": 1}

====

- Subject Of Test: FITC-labeled CFTRpS753pS768 peptide (no 14-3-3) (Homo sapiens)
- Construct: made in house; host or cells: synthetic peptide
- Assay Notes: Dose-response FP control assay in the absence of 14-3-3
- Format: binding
- Test Conditions: No 14-3-3; compound 0.00025 M
Measured Metric: FP signal

{"Molecule": "N=C(N)NCCCC1NC(=O)C(CCC(N)=O)NC(=O)C(CCCNC(=N)N)NC(=O)C2CCCN2Cc2cccc(c2)-c2ccccc2CNC1=O (stereo not drawn) [CY007458]", "Value Measured": 179}
{"Molecule": "CN1CC(=O)NC(CCCNC(=N)N)C(=O)NC(CCC(N)=O)C(=O)NC(CCCNC(=N)N)C(=O)NCc2ccccc2-c2cccc(c2)C1 (stereo not drawn)", "Value Measured": 142}
{"Molecule": "NCCCC1NCc2ccccc2Sc2ccccc2CNC(=O)C(Cc2c[nH]c3ccccc23)NC(=O)C(Cc2ccccc2)NC1=O (stereo not drawn)", "Value Measured": 224}
{"Molecule": "N=C(N)NCCCC1NCc2ccccc2Sc2ccccc2CNC(=O)C(Cc2ccc(O)cc2)NC(=O)C(CCCN)NC1=O (stereo not drawn)", "Value Measured": 263}
{"Molecule": "N=C(N)NCCCC1NC(=O)C(CCC(N)=O)NC(=O)C(CCCNC(=N)N)NC(=O)C2CCCN2Cc2cccc(c2)-c2ccccc2CNC1=O (stereo not drawn) [CY007455]", "Value Measured": 170}
{"Molecule": "NCCCCC1NCc2ccccc2Sc2ccccc2CNC(=O)C(Cc2cccc(Cl)c2)NC(=O)C(Cc2ccc(O)cc2)NC1=O (stereo not drawn)", "Value Measured": 149}

====

- Subject Of Test: FITC-labeled CFTRpS753pS768 peptide (no 14-3-3) (Homo sapiens, UniProt P13569)
- Construct: made in house; host or cells: synthetic peptide
- Assay Notes: Dose-response FP control assay in the absence of 14-3-3
- Type: binding
- Test Conditions: No 14-3-3; compound 1.5625e-5 M

{"Molecule": "N=C(N)NCCCC1NC(=O)C(CCC(N)=O)NC(=O)C(CCCNC(=N)N)NC(=O)C2CCCN2Cc2cccc(c2)-c2ccccc2CNC1=O (stereo not drawn) [CY007458]", "FP signal": 15}
{"Molecule": "CC1NC(=O)C(CCCNC(=N)N)NC(=O)C2CCCN2Cc2cccc(c2)-c2ccccc2CNC(=O)C(CCCNC(=N)N)NC1=O (stereo not drawn) [CY007476]", "FP signal": 13}
{"Molecule": "NCCCC1NCc2ccccc2Sc2ccccc2CNC(=O)C(Cc2c[nH]c3ccccc23)NC(=O)C(Cc2ccccc2)NC1=O (stereo not drawn) [CY007345]", "FP signal": 52}

====

- Subject Of Test: FITC-labeled CFTRpS753pS768 peptide (no 14-3-3) (Homo sapiens, UniProt P13569)
- Construct: made in house; host or cells: synthetic peptide
- Assay Notes: Dose-response FP control assay in the absence of 14-3-3
- Format: binding
- Test Conditions: No 14-3-3; compound 6.25e-5 M
Measured Metric: FP signal

{"Molecule": "N=C(N)NCCCC1NC(=O)C(CCC(N)=O)NC(=O)C(CCCNC(=N)N)NC(=O)C2CCCN2Cc2cccc(c2)-c2ccccc2CNC1=O (stereo not drawn) [CY007458]", "Measured Metric": "FP signal", "Value Measured": 65}
{"Molecule": "CN1CC(=O)NC(CCCNC(=N)N)C(=O)NC(CCC(N)=O)C(=O)NC(CCCNC(=N)N)C(=O)NCc2ccccc2-c2cccc(c2)C1 (stereo not drawn) [CY007491]", "Measured Metric": "FP signal", "Value Measured": 35}
{"Molecule": "CC1NC(=O)C(CCCNC(=N)N)NC(=O)C2CCCN2Cc2cccc(c2)-c2ccccc2CNC(=O)C(CCCNC(=N)N)NC1=O (stereo not drawn) [CY007476]", "Measured Metric": "FP signal", "Value Measured": 59}
{"Molecule": "NCCCCC1NCc2ccccc2Sc2ccccc2CNC(=O)C(Cc2cccc(Cl)c2)NC(=O)C(Cc2ccc(O)cc2)NC1=O (stereo not drawn) [CY007288]", "Measured Metric": "FP signal", "Value Measured": 55}
{"Molecule": "C=CC(C)(C)OC[C@H]1O[C@H](O[C@@H]2C3=C([C@H](C)COC(C)=O)C[C@H](O)[C@]3(C)/C=C3/[C@@H](COC)CC[C@H]3[C@@H](C)[C@H]2O)[C@H](O)[C@@H](OC(C)=O)[C@@H]1O [FC-A, fusicoccin A, reference compound]", "Measured Metric": "FP signal", "Value Measured": 70}
{"Molecule": "N=C(N)NCCCC1NCc2ccccc2Sc2ccccc2CNC(=O)C(Cc2ccc(O)cc2)NC(=O)C(CCCN)NC1=O (stereo not drawn) [CY007424]", "Measured Metric": "FP signal", "Value Measured": 193}
{"Molecule": "N=C(N)NCCCC1NC(=O)C(CCCCN)NCc2ccccc2Sc2ccccc2CNC(=O)C(Cc2ccc(O)cc2)NC1=O (stereo not drawn) [CY001951]", "Measured Metric": "FP signal", "Value Measured": 33}
{"Molecule": "NCCCC1NCc2ccccc2Sc2ccccc2CNC(=O)C(Cc2c[nH]c3ccccc23)NC(=O)C(Cc2ccccc2)NC1=O (stereo not drawn) [CY007345]", "Measured Metric": "FP signal", "Value Measured": 137}
{"Molecule": "N=C(N)NCCCC1NC(=O)C(CCC(N)=O)NC(=O)C(CCCNC(=N)N)NC(=O)C2CCCN2Cc2cccc(c2)-c2ccccc2CNC1=O (stereo not drawn) [CY007455]", "Measured Metric": "FP signal", "Value Measured": 53}
